- Test Description: in vitro
- Test Settings: human
Assay Readout: CC50 (nM)
The reply should contain only the number, in nM.

Compound	Reported Result
Cc1ccc(-c2cc3c(-c4cc(N5CCOCC5C(F)(F)F)[nH]c(=O)c4)ccnc3[nH]2)s1 (stereo not shown) [Compound 4]	411
O=c1cc(-c2ccnc3[nH]ncc23)cc(N2CCCCC2C(F)(F)F)[nH]1 (stereo not shown) [Compound 1]	8000

We next turn to a different compound, shown below.
Lab note: O=c1cc(-c2ccnc3[nH]c(C4CC4)cc23)cc(N2CCCCC2C(F)(F)F)[nH]1 (stereo not shown) [Compound 3] gave CC50 of 482
